- protocol.summary: Self-fluorescence of dyes and plaque substances by fluorescent microscopy
- Format: physicochemical
- recorded.conditions: exciting 360/emitting 420 nm or exciting 470/emitting 515 nm
property.name: Self-fluorescence present or not

Examples with their reported Self-fluorescence present or not follow.
molecule	Self-fluorescence present or not
CC[N+](CC)=c1ccc2nc3c(cc(N)c4ccccc43)oc-2c1	no self-fluorescence
CC1=C(/C=C/C(C)=C/C=C/C(C)=C/C=C/C=C(C)/C=C/C=C(C)/C=C/C2=C(C)CCCC2(C)C)C(C)(C)CCC1	had self-fluorescence
Cc1cc(-c2ccc(/N=N/c3ccc4c(S(=O)(=O)O)cc(S(=O)(=O)O)c(N)c4c3O)c(C)c2)ccc1/N=N/c1ccc2c(S(=O)(=O)O)cc(S(=O)(=O)O)c(N)c2c1O	no self-fluorescence
CCCCC/C=C\C/C=C\CCCCCCCC(=O)O[C@H]1CC[C@@]2(C)C(=CC[C@H]3[C@@H]4CC[C@H]([C@H](C)CCCC(C)C)[C@@]4(C)CC[C@@H]32)C1 [Cholesteryl linolate]	had self-fluorescence

Shift focus to the following entry.
Measured Self-fluorescence present or not, O=S(=O)([O-])c1cccc(N=Nc2ccc(Nc3ccccc3)cc2)c1.[Na+] : no self-fluorescence

----------
- protocol.summary: Self-fluorescence of dyes and plaque substances by fluorescent microscopy
- Type: physicochemical
- Parameters: key: B: blue.; G: green.; O: orange.; W: white.; Y: yellow
- recorded.conditions: exciting filter 360 nm, emitting filter 420 nm

compound	Self-fluorescence colour
CC(C)CCC[C@@H](C)[C@H]1CC[C@H]2[C@@H]3CC=C4C[C@@H](O)CC[C@]4(C)[C@H]3CC[C@]12C [free Cholesterol]	W
CC1=C(/C=C/C(C)=C/C=C/C(C)=C/C=C/C=C(C)/C=C/C=C(C)/C=C/C2=C(C)CCCC2(C)C)C(C)(C)CCC1	O
CC[n+]1c(-c2ccccc2)c2cc(N)ccc2c2ccc(N)cc21 [Homidium chloride]	Y
CCCCC/C=C\C/C=C\CCCCCCCC(=O)O[C@H]1CC[C@@]2(C)C(=CC[C@H]3[C@@H]4CC[C@H]([C@H](C)CCCC(C)C)[C@@]4(C)CC[C@@H]32)C1 [Cholesteryl linolate]	W

----------
- protocol.summary: Self-fluorescence of dyes and plaque substances by fluorescent microscopy
- Assay type: physicochemical
- recorded.conditions: exciting 360/emitting 420 nm or exciting 470/emitting 515 nm

molecule	Self-fluorescence present or not
Cc1cc(-c2ccc(/N=N/c3c(S(=O)(=O)[O-])cc4cc(S(=O)(=O)[O-])cc(N)c4c3O)c(C)c2)ccc1/N=N/c1c(S(=O)(=O)[O-])cc2cc(S(=O)(=O)[O-])cc(N)c2c1O.[Na+].[Na+].[Na+].[Na+] [Tripan blue]	no self-fluorescence
CC1=NN(c2cc(Cl)c(S(=O)(=O)[O-])cc2Cl)C(=O)C1N=Nc1ccc(S(=O)(=O)[O-])cc1.[Na+].[Na+] (stereo not drawn) [Lissamine fast yellow]	no self-fluorescence

----------
- protocol.summary: Self-fluorescence of dyes and plaque substances by fluorescent microscopy
- Format: physicochemical
- Set-up: key: B: blue.; G: green.; O: orange.; W: white.; Y: yellow
- recorded.conditions: exciting filter 470 nm, emitting filter 515 nm

compound	Self-fluorescence colour
CC(C)CCC[C@@H](C)[C@H]1CC[C@H]2[C@@H]3CC=C4C[C@@H](O)CC[C@]4(C)[C@H]3CC[C@]12C [free Cholesterol]	Y
CCCCC/C=C\C/C=C\CCCCCCCC(=O)O[C@H]1CC[C@@]2(C)C(=CC[C@H]3[C@@H]4CC[C@H]([C@H](C)CCCC(C)C)[C@@]4(C)CC[C@@H]32)C1 [Cholesteryl linolate]	Y
CC1=C(/C=C/C(C)=C/C=C/C(C)=C/C=C/C=C(C)/C=C/C=C(C)/C=C/C2=C(C)CCCC2(C)C)C(C)(C)CCC1	O
CC[n+]1c(-c2ccccc2)c2cc(N)ccc2c2ccc(N)cc21 [Homidium chloride]	O
